Data origin, for the record: the NIST ThermoML archive (doi:10.1021/je0503857)

condition: 300 K; Liquid; Gas chromatography
reportedProperty: vapor or sublimation pressure (kPa)

Answered examples (3):
# compound, vapor or sublimation pressure [kPa]
rows = [
    ("CCCCCCCCCCC(O)CCCCCC (configuration not stated) [7-heptadecanol]", "2.552e-06"),
    ("CCCCCCCCCCCCCCCCCCCCCCCCCCO [1-hexacosanol]", "9.145e-11"),
    ("CCCCCCCCC(O)CCCCCCCC [9-heptadecanol]", "2.471e-06"),
]

I: CC(C)CCC[C@@H](C)[C@H]1CC[C@H]2[C@@H]3CC=C4C[C@@H](O)CC[C@]4(C)[C@H]3CC[C@]12C [.DELTA.5-cholesten-3β-ol]
II: CCCCCCCCCCCC(O)CCCCC (configuration not stated) [6-heptadecanol]
III: CCCCCCCCCCCCCCCCCCCCO [1-eicosanol]
IV: CCCCCCCCCCCCCCCCCO [1-heptadecanol]
Problem: Rank items: key vapor or sublimation pressure, increasing. Sort and list the labels as requested.
Solution: I, III, IV, II
